Taken from paper PMC4309560.

Tested Target: Human plasmin (Homo sapiens)
Readout Label: pKi
To interpret pKi, take it as minus log10 of a concentration measured in moles per litre.

Any idea what pKi was measured for O=C(Cc1cc2cc(Cl)ccc2[nH]c1=O)NC(Cc1ccccc1)C(=O)Nc1ccc(-c2nnn[nH]2)cc1 (stereo not shown) ?
4.48

---

Parameter ligand efficiency (LE): see the listing below.
Tested Target: Human FXIa (Homo sapiens, UniProt P03951)
Construct: purchased HTI, Essex Junction, USA
Sequence (P03951 388-625): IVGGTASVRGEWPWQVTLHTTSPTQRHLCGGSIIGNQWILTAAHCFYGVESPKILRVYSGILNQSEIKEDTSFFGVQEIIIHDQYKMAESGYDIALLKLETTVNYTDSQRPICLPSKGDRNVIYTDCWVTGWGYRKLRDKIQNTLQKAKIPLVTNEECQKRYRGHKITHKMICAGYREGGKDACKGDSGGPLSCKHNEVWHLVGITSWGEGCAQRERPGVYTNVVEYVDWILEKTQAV
Sequence (P03951 19-387): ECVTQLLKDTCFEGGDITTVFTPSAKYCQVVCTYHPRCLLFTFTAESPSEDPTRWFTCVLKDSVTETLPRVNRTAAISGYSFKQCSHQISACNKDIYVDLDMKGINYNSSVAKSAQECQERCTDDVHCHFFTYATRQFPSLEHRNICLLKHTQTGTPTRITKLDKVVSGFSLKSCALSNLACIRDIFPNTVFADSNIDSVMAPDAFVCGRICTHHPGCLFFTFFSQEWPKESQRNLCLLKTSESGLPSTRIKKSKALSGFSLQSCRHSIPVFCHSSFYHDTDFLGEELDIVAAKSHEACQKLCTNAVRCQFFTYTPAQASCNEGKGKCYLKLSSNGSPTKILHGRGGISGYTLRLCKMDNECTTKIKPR
Test Method Notes: FXIa enzymatic chromogenic assay
Assay type: biochemical
Condition Summary: FXIa
I'd appreciate a reply containing only the number, no unit.

CC(=O)N[C@@H](Cc1ccccc1)C(=O)NCc1cc(=O)[nH]c2ccc(Cl)cc12 :: 0.22

Any idea what ligand efficiency (LE) was measured for `CNC(=O)[C@H](Cc1ccccc1)NC(=O)c1ccc2[nH]c(=O)cc(O)c2c1` ?
0.15

Now this one: `O=c1ccc2cc(Cl)ccc2[nH]1`
0.44

Now this one: `O=C(N[C@@H](Cc1ccccc1)C(=O)NCc1cc(=O)[nH]c2ccc(Cl)cc12)c1ccc2[nH]c(=O)cc(O)c2c1`
0.32

---

Test Method Notes: In vivo rat PK
Condition Summary: female, Sprague Dawley, plasma, intravenous; rat in vivo; read-out: Rat CL (in vivo clearance)
Readout Label: clearance (mL/min/kg)
Dear colleague, please return just the value in mL/min/kg, with no unit written.

Cc1c(-c2ccccc2)n[nH]c1C(=O)N(C)Cc1cc(=O)[nH]c2ccc(Cl)cc12 [Compound 28] :: 18

Let us examine a further case.
Any idea what clearance was measured for O=C(N[C@@H](Cc1ccccc1)C(=O)NCc1cc(=O)[nH]c2ccc(Cl)cc12)c1ccc2[nH]c(=O)cc(O)c2c1 [Compound 13] ?
130

---

Tested Target: Human PKK (Homo sapiens)
Construct: trypsin, plasma kallikrein (PKK), FIXa
Sequence (P03952 391-638 limits assumed): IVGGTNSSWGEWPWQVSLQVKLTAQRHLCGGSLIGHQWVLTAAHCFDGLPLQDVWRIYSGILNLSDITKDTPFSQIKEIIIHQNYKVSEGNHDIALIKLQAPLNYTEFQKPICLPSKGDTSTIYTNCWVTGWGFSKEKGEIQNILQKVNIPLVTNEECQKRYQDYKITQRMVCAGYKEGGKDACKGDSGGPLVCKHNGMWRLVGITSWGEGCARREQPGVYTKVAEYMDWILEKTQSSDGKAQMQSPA
Sequence (P03952 20-390 partner limits assumed): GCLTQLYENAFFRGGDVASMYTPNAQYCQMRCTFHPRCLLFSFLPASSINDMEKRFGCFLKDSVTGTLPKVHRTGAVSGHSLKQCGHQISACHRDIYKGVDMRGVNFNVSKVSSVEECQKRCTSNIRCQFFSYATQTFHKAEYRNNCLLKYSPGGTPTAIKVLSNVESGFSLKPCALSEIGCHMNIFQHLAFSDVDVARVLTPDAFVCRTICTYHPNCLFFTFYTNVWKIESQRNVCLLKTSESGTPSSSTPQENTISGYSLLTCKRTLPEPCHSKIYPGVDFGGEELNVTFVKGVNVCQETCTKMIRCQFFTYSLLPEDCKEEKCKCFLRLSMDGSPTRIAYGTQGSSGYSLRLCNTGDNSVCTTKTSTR
Test Method Notes: PKK (plasma kallikrein) chromogenic assay
Condition Summary: converted from IC50
Values of Ki strictly less than 2 µM map to Criterion met, and values of at least 2 µM map to Criterion not met.

Answered examples (6):
O=C(CC1Cc2cc(Cl)ccc2NC1=O)NC(Cc1ccccc1)C(=O)Nc1ccc(-c2nnn[nH]2)cc1 (centres unmarked) :: Criterion not met
Cc1c(-c2ccccc2)n[nH]c1C(=O)N(C)Cc1cc(=O)[nH]c2ccc(Cl)cc12 :: Criterion met
O=C(Cc1cc2cc(Cl)ccc2[nH]c1=O)NC(Cc1ccccc1)C(=O)Nc1ccc(-c2nnn[nH]2)cc1 (centres unmarked) :: Criterion not met
O=C(N[C@@H](Cc1ccccc1)C(=O)NCc1cc(=O)[nH]c2ccc(Cl)cc12)c1ccc2[nH]c(=O)cc(O)c2c1 :: Criterion met
CC(=O)N[C@@H](Cc1ccccc1)C(=O)NCc1cc(=O)[nH]c2ccc(Cl)cc12 :: Criterion not met
COC(=O)Nc1ccc(-c2nc(CNC(=O)CCc3cc(Cl)ccc3-n3cnnn3)[nH]c2Cl)cc1 [Compound 11, reference compound] :: Criterion not met

For this compound, is Ki lower than 2 µM? `Nc1ccc2c(CNC(=O)[C@H](Cc3ccccc3)NC(=O)c3ccc4[nH]c(=O)cc(O)c4c3)cccc2n1`
Criterion met

Now this one: O=C1CC(CC(=O)NC(Cc2ccccc2)C(=O)Nc2ccc(-c3nnn[nH]3)cc2)c2cc(Cl)ccc2N1 (centres unmarked)
Criterion met

---

Tested Target: FXIa CD (Homo sapiens, UniProt P03951, C500S/K455A/S452A/T493A)
Construct: purification of the catalytic domain (residues 370–607) was carried out as described by Jin et al; made in house
Sequence (P03951 388-625 S452A/K455A/T493A/C500S): as the sequence (P03951 388-625) above, with S65A, K68A, T106A, C113S counted along it
Test Method Notes: FXIa surface plasmon resonance (Biacore) inhibition in solution assay
Type: binding
Condition Summary: read-out: FXIa KD
Readout Label: pKd
To interpret pKd, take it as minus log10 of a concentration measured in moles per litre.

Any idea what pKd was measured for CNC(=O)[C@H](Cc1ccccc1)NC(=O)c1ccc2[nH]c(=O)cc(O)c2c1 [Compound 15] ?
2.85

---

Test Method Notes: Caco2 efflux
Type: in vitro ADME
Condition Summary: human, Caco-2; Caco2, Papp B to A / Papp A to B, pH 7.4 at side A
Parameter efflux ratio: see the listing below.
I'd appreciate a reply containing only the number, no unit.

CN(Cc1cc(=O)[nH]c2ccc(Cl)cc12)C(=O)[C@H](Cc1ccccc1)NC(=O)c1ccc2[nH]c(=O)cc(O)c2c1 [Compound 25] :: 5.2
Cc1c(-c2ccccc2)n[nH]c1C(=O)N(C)Cc1cc(=O)[nH]c2ccccc12 [Compound 27] :: 6.7

Any idea what efflux ratio was measured for Cc1c(-c2ccccc2)n[nH]c1C(=O)N(C)Cc1cc(=O)[nH]c2ccc(Cl)cc12 [Compound 28] ?
1.6

---

Tested Target: Human plasmin (Homo sapiens, UniProt P00747)
Construct: Human plasmin was from Enzyme Research Laboratories, Swansea, UK; purchased Enzyme Research Laboratories, Swansea, UK
Sequence (P00747 581-810 limits assumed): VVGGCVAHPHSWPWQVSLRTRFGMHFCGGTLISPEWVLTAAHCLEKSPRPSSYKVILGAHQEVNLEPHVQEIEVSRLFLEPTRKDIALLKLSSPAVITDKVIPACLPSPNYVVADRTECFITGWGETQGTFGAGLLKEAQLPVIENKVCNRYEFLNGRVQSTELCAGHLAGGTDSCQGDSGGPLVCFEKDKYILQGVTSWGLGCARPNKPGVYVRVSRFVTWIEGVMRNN
Sequence (P00747 97-580 partner limits assumed): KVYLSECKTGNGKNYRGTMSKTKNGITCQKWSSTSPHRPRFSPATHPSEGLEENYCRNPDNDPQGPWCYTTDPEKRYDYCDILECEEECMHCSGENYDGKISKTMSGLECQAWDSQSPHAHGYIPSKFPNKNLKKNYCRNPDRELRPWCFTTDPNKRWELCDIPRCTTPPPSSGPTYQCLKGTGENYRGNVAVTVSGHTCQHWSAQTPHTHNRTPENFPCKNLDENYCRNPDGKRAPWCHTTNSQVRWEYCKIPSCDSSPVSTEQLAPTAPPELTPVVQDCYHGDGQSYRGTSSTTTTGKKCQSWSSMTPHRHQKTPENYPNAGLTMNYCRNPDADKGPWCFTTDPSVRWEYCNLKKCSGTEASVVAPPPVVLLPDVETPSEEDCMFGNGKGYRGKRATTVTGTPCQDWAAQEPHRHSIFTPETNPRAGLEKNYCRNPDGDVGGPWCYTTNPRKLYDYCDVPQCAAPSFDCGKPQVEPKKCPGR
Test Method Notes: Plasmin chromogenic assay
Type: biochemical
Readout Label: IC50 (µM)
Dear colleague, please return just the value in µM, with no unit written.

Any idea what IC50 came out for O=C(Cc1cc2cc(Cl)ccc2[nH]c1=O)NC(Cc1ccccc1)C(=O)Nc1ccc(-c2nnn[nH]2)cc1 (stereo not shown) on Human plasmin (Homo sapiens, UniProt P00747)?
70

---

Tested Target: Recombinant human trypsin (Homo sapiens, UniProt P07477)
Test Method Notes: biochemical
Condition Summary: read-out: Trypsin % inhibition at 99 μM
Readout Label: inhibition at 99 µM (%)
Dear colleague, please return just the value in %, with no unit written.

O=C(N[C@@H](Cc1ccccc1)C(=O)NCc1cc(=O)[nH]c2ccc(Cl)cc12)c1ccc2[nH]c(=O)cc(O)c2c1 :: 12
O=C(CC1Cc2cc(Cl)ccc2NC1=O)NC(Cc1ccccc1)C(=O)Nc1ccc(-c2nnn[nH]2)cc1 (stereo not shown) :: 1
O=C(Cc1cc2cc(Cl)ccc2[nH]c1=O)NC(Cc1ccccc1)C(=O)Nc1ccc(-c2nnn[nH]2)cc1 (stereo not shown) :: 14

Any idea what inhibition at 99 µM came out for `Cc1cc(N)nc2ccccc12` on Recombinant human trypsin (Homo sapiens, UniProt P07477)?
43

---

Parameter inhibition at 99 µM: see the listing below.
Tested Target: Human plasmin (Homo sapiens)
Construct: Human plasmin was from Enzyme Research Laboratories, Swansea, UK; purchased Enzyme Research Laboratories, Swansea, UK
Test Method Notes: Plasmin chromogenic assay
Assay type: biochemical
Condition Summary: read-out: Plasmin % inhibition at 99 μM
Experimental: Enzymatic assay. […] Selected compounds were also screened against other serine proteases to evaluate their selectivity profiles. Once the compounds were synthesized and characterized, enzymatic assays were performed to evaluate the inhibitory activity of the resulting compounds against FXIa and other serine proteases. […]
Dear colleague, please return just the value in %, with no unit written.

Cc1cc(N)nc2ccccc12 [Compound 19] :: 8
O=C(CC1Cc2cc(Cl)ccc2NC1=O)NC(Cc1ccccc1)C(=O)Nc1ccc(-c2nnn[nH]2)cc1 (stereo not shown) [Compound 21] :: 0
O=c1ccc2cc(Cl)ccc2[nH]1 [Compound 5] :: 31
O=C1CC(CC(=O)NC(Cc2ccccc2)C(=O)Nc2ccc(-c3nnn[nH]3)cc2)c2cc(Cl)ccc2N1 (stereo not shown) [Compound 20] :: 8
CC(=O)N[C@@H](Cc1ccccc1)C(=O)NCc1cc(=O)[nH]c2ccc(Cl)cc12 [Compound 14] :: 7
COC(=O)Nc1ccc(-c2nc(CNC(=O)CCc3cc(Cl)ccc3-n3cnnn3)[nH]c2Cl)cc1 [Compound 11, reference compound] :: 0

Any idea what inhibition at 99 µM was measured for O=C(N[C@@H](Cc1ccccc1)C(=O)NCc1cc(=O)[nH]c2ccc(Cl)cc12)c1ccc2[nH]c(=O)cc(O)c2c1 [Compound 13] ?
14

---

Parameter inhibition at 99 µM: see the listing below.
Tested Target: Human recombinant thrombin (Homo sapiens, UniProt P00734)
Construct: Human recombinant thrombin was prepared in house; made in house
Test Method Notes: Thrombin (FIIa) chromogenic assay
Format: biochemical
Condition Summary: read-out: FIIa % inhibition at 99 μM

Cc1cc(N)nc2ccccc12 [Compound 19] :: 8%
O=C(Cc1cc2cc(Cl)ccc2[nH]c1=O)NC(Cc1ccccc1)C(=O)Nc1ccc(-c2nnn[nH]2)cc1 (stereo not shown) [Compound 22] :: 27%
O=c1ccc2cc(Cl)ccc2[nH]1 [Compound 5] :: 8%

Any idea what inhibition at 99 µM was measured for CC(=O)N[C@@H](Cc1ccccc1)C(=O)NCc1cc(=O)[nH]c2ccc(Cl)cc12 [Compound 14] ?
9%

Now this one: O=C(CC1Cc2cc(Cl)ccc2NC1=O)NC(Cc1ccccc1)C(=O)Nc1ccc(-c2nnn[nH]2)cc1 (stereo not shown) [Compound 21]
2%

Now this one: O=C(N[C@@H](Cc1ccccc1)C(=O)NCc1cc(=O)[nH]c2ccc(Cl)cc12)c1ccc2[nH]c(=O)cc(O)c2c1 [Compound 13]
11%

Now this one: O=C1CC(CC(=O)NC(Cc2ccccc2)C(=O)Nc2ccc(-c3nnn[nH]3)cc2)c2cc(Cl)ccc2N1 (stereo not shown) [Compound 20]
10%
